Target: IgG receptor FcRn large subunit p51 (Homo sapiens, UniProt P55899)
Sequence (P55899 whole entry): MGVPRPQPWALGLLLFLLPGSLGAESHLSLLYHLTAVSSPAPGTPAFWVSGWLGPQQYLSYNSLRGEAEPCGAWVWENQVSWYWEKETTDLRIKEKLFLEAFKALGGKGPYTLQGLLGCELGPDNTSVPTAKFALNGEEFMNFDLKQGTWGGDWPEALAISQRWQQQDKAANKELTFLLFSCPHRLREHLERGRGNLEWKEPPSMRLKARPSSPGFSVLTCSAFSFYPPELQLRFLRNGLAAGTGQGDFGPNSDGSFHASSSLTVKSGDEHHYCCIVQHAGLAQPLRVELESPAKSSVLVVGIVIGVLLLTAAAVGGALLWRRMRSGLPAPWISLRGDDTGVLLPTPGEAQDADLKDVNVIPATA
Assay: Inhibition of human IgG binding to soluble human FcRn by ELISA
For each record, write down the corresponding pIC50.
pIC50 here is simply -log10 of the concentration when that concentration is written in mol/L.

Lookup: Recorded pIC50 of CC(C)C[C@@H](C(=O)N[C@@H](Cc1ccc(O)cc1)C(=O)N1CCC[C@H]1C(=O)N[C@@H](CS)C(=O)N[C@@H](CC(N)=O)C(=O)NCC(=O)N1CCC[C@H]1C(=O)O)N(C)C(=O)CNC(=O)[C@@H](C)NC(=O)[C@H](Cc1ccccc1)NC(=O)[C@H](Cc1cnc[nH]1)NC(=O)CNC(=O)[C@@H](NC(=O)[C@@H](NC(=O)[C@H](Cc1ccccc1)NC(=O)[C@H](CCCNC(=N)N)NC(=O)[C@@H](N)CCC(N)=O)C(C)(C)S)[C@@H](C)O , please.
Found: 5.49

Lookup: What do we get for CC(C)C[C@@H](C(=O)N[C@@H](Cc1ccc(O)cc1)C(=O)N1CCC[C@H]1C(=O)N[C@@H](CS)C(=O)O)N(C)C(=O)CN(C)C(=O)CNC(=O)[C@H](Cc1ccccc1)NC(=O)[C@H](Cc1ccc(N)cc1)NC(=O)CNC(=O)[C@@H](NC(=O)[C@@H](NC(=O)[C@H](Cc1ccccc1)NC(=O)[C@@H](N)CCCNC(=N)N)C(C)(C)S)[C@@H](C)O ?
Found: 5.34

Lookup: Repeat with CC(C)C[C@H](NC(=O)[C@@H](CCCN=C(N)N)NC(=O)CNC(=O)[C@H](Cc1ccccc1)NC(=O)[C@H](Cc1cnc[nH]1)NC(=O)CNC(=O)[C@@H](NC(=O)[C@@H](NC(=O)[C@H](Cc1ccccc1)NC(=O)[C@H](CCCN=C(N)N)NC(=O)[C@@H](N)CCC(N)=O)C(C)(C)S)[C@@H](C)O)C(=O)N[C@@H](Cc1ccc(O)cc1)C(=O)N1CCC[C@H]1C(=O)N[C@@H](CS)C(=O)N[C@@H](CC(N)=O)C(=O)NCC(=O)N1CCC[C@H]1C(=O)O
Found: 5.09

Lookup: Okay, and CC(C)C[C@H](NC(=O)CNC(=O)CNC(=O)[C@H](Cc1ccccn1)NC(=O)[C@H](Cc1cnc[nH]1)NC(=O)CNC(=O)[C@@H](NC(=O)[C@@H](NC(=O)[C@H](Cc1ccccc1)NC(=O)[C@H](CCCNC(=N)N)NC(=O)[C@@H](N)CCC(N)=O)C(C)(C)S)[C@@H](C)O)C(=O)N[C@@H](Cc1ccc(O)cc1)C(=O)N1CCC[C@H]1C(=O)N[C@@H](CS)C(=O)N[C@@H](CC(N)=O)C(=O)NCC(=O)N1CCC[C@H]1C(=O)O ?
Found: 4.05

----------
Biological target: IgG receptor FcRn large subunit p51 (Homo sapiens, UniProt P55899)
Test: Binding affinity to human FcRn at pH 6 by surface plasmon resonance assay
Measurement type: Kd (µM)
Lab book: enter the figure in µM, no units written.

Lookup: // Kd lookup, key: CC(C)C[C@H](NC(=O)CNC(=O)CN(C)C(=O)[C@H](Cc1ccccc1)NC(=O)[C@H](Cc1cnc[nH]1)NC(=O)CNC(=O)[C@@H](NC(=O)[C@@H](NC(=O)[C@H](Cc1ccccc1)NC(=O)[C@H](CCCN=C(N)N)NC(=O)[C@@H](N)CCC(N)=O)C(C)(C)S)[C@@H](C)O)C(=O)N[C@@H](Cc1ccc(O)cc1)C(=O)N1CCC[C@H]1C(=O)N[C@@H](CS)C(=O)N[C@@H](CC(N)=O)C(=O)NCC(=O)N1CCC[C@H]1C(=O)O
Found: 2

Lookup: Entry CC(C)C[C@H](NC(=O)CNC(=O)CNC(=O)[C@H](CCc1ccccc1)NC(=O)[C@H](Cc1cnc[nH]1)NC(=O)CNC(=O)[C@@H](NC(=O)[C@@H](NC(=O)[C@H](Cc1ccccc1)NC(=O)[C@H](CCCNC(=N)N)NC(=O)[C@@H](N)CCC(N)=O)C(C)(C)S)[C@@H](C)O)C(=O)N[C@@H](Cc1ccc(O)cc1)C(=O)N1CCC[C@H]1C(=O)N[C@@H](CS)C(=O)N[C@@H](CC(N)=O)C(=O)NCC(=O)N1CCC[C@H]1C(=O)O please
Found: 7.8

Lookup: Next: CC(C)C[C@H](NC(=O)[C@@H](Cc1ccc(O)cc1)NC(=O)CNC(=O)[C@H](Cc1ccccc1)NC(=O)[C@H](Cc1cnc[nH]1)NC(=O)CNC(=O)[C@@H](NC(=O)[C@@H](NC(=O)[C@H](Cc1ccccc1)NC(=O)[C@H](CCCN=C(N)N)NC(=O)[C@@H](N)CCC(N)=O)C(C)(C)S)[C@@H](C)O)C(=O)N[C@@H](Cc1ccc(O)cc1)C(=O)N1CCC[C@H]1C(=O)N[C@@H](CS)C(=O)N[C@@H](CC(N)=O)C(=O)NCC(=O)N1CCC[C@H]1C(=O)O
Found: 1.5

----------
Biological target: IgG receptor FcRn large subunit p51 (Homo sapiens, UniProt P55899)
Assay: Binding affinity to human FcRn at pH 6 by surface plasmon resonance assay
Please respond with reported pKd for every item in the list.
Notebook: values listed as pKd are -log10 of the concentration (mol/L).

Lookup: Can you look up the measured pKd of CC(C)C[C@@H](C(=O)N[C@@H](Cc1ccc(O)cc1)C(=O)N1CCC[C@H]1C(=O)N[C@@H](CS)C(=O)O)N(C)C(=O)CN(C)C(=O)CNC(=O)[C@H](CCc1ccccc1)NC(=O)[C@H](Cc1cnc[nH]1)NC(=O)CNC(=O)[C@@H](NC(=O)[C@@H](NC(=O)[C@H](Cc1ccccc1)NC(=O)[C@H](CCCNC(=N)N)NC(=O)[C@@H](N)CCC(N)=O)C(C)(C)S)[C@@H](C)O for me?
Found: 3.64

Lookup: Do the same for CC(C)C[C@@H](C(=O)N[C@@H](Cc1ccc(O)cc1)C(=O)N1CCC[C@H]1C(=O)N[C@@H](CS)C(=O)O)N(C)C(=O)CN1CCC[C@@H](NC(=O)[C@H](Cc2ccccc2)NC(=O)[C@H](Cc2cnc[nH]2)NC(=O)CNC(=O)[C@@H](NC(=O)[C@H](NC(=O)[C@H](Cc2ccccc2)NC(=O)[C@@H](N)CCCNC(=N)N)C(C)(C)S)[C@@H](C)O)C1=O please
Found: 7.37

Lookup: Can you handle CC(C)C[C@@H](C(=O)N[C@@H](Cc1ccc(O)cc1)C(=O)N1CCC[C@H]1C(=O)N[C@@H](CS)C(=O)O)N(C)C(=O)CN(C)C(=O)CNC(=O)[C@H](Cc1ccccc1)NC(=O)[C@H](CC1CCNCC1)NC(=O)CNC(=O)[C@@H](NC(=O)[C@@H](NC(=O)[C@H](Cc1ccccc1)NC(=O)[C@@H](N)CCCNC(=N)N)C(C)(C)S)[C@@H](C)O next?
Found: 5.28

----------
Molecular target: IgG receptor FcRn large subunit p51 (Homo sapiens, UniProt P55899)
Assay: Inhibition of human IgG binding to soluble human FcRn by ELISA
pIC50: −log10 of the molar value. Bridge positions count the residues as written; N and C are the ends. Peptide text beside a SMILES is read from it.
Quick rule: pIC50 of at least 5 means satisfied, below that means not satisfied.

Lookup: Textbook exercise: given the entry CC(C)C[C@H](NC(=O)CNC(=O)CNC(=O)[C@H](Cc1ccccc1)NC(=O)[C@H](Cc1cnc[nH]1)NC(=O)CNC(=O)[C@@H](NC(=O)[C@H](CC(=O)O)NC(=O)[C@H](Cc1ccccc1)NC(=O)[C@H](CCCN=C(N)N)NC(=O)[C@@H](N)CCC(N)=O)[C@@H](C)O)C(=O)N[C@@H](Cc1ccc(O)cc1)C(=O)N1CCC[C@H]1C(=O)N[C@@H](CN)C(=O)N[C@@H](CC(N)=O)C(=O)NCC(=O)N1CCC[C@H]1C(=O)O , state whether its pIC50 is greater than or equal to 5.
Found: not satisfied

Lookup: Same question, CC(C)C[C@H](NC(=O)CNC(=O)CNC(=O)[C@H](Cc1ccccc1)NC(=O)[C@H](Cc1cnc[nH]1)NC(=O)CNC(=O)[C@@H](NC(=O)[C@@H](NC(=O)[C@H](Cc1ccccc1)NC(=O)[C@H](CCCNC(=N)N)NC(=O)[C@@H](N)CCC(N)=O)C(C)(C)S)[C@@H](C)O)C(=O)N[C@@H](Cc1c(F)c(F)c(F)c(F)c1F)C(=O)N1CCC[C@H]1C(=O)N[C@@H](CS)C(=O)N[C@@H](CC(N)=O)C(=O)NCC(=O)N1CCC[C@H]1C(=O)O this time
Found: not satisfied

Lookup: One more compound: CC(C)C[C@H](NC(=O)[C@@H](C)NC(=O)[C@@H](Cc1ccccc1)NC(=O)[C@H](Cc1ccccc1)NC(=O)[C@H](Cc1cnc[nH]1)NC(=O)CNC(=O)[C@@H](NC(=O)[C@@H](NC(=O)[C@H](Cc1ccccc1)NC(=O)[C@H](CCCNC(=N)N)NC(=O)[C@@H](N)CCC(N)=O)C(C)(C)S)[C@@H](C)O)C(=O)N[C@@H](Cc1ccc(O)cc1)C(=O)N1CCC[C@H]1C(=O)N[C@@H](CS)C(=O)N[C@@H](CC(N)=O)C(=O)NCC(=O)N1CCC[C@H]1C(=O)O
Found: satisfied

Lookup: Likewise for CC(C)C[C@H](NC(=O)CNC(=O)CNC(=O)[C@H](Cc1ccccc1)NC(=O)[C@H](Cc1cnc[nH]1)NC(=O)CNC(=O)[C@@H](NC(=O)[C@H](CS)NC(=O)[C@H](Cc1ccccc1)NC(=O)[C@@H](N)CCCN=C(N)N)[C@@H](C)O)C(=O)N[C@@H](Cc1ccc(O)cc1)C(=O)N1CCC[C@H]1C(=O)N[C@@H](CS)C(=O)O ?
Found: not satisfied

Lookup: Also CC(C)C[C@H](NC(=O)CNC(=O)CNC(=O)[C@H](Cc1ccc(C(C)(C)C)cc1)NC(=O)[C@H](Cc1cnc[nH]1)NC(=O)CNC(=O)[C@@H](NC(=O)[C@@H](NC(=O)[C@H](Cc1ccccc1)NC(=O)[C@H](CCCNC(=N)N)NC(=O)[C@@H](N)CCC(N)=O)C(C)(C)S)[C@@H](C)O)C(=O)N[C@@H](Cc1ccc(O)cc1)C(=O)N1CCC[C@H]1C(=O)N[C@@H](CS)C(=O)O , if possible.
Found: not satisfied

Lookup: And then CC[C@H](C)[C@@H]1NC(=O)CNC(=O)[C@H](CC(=O)O)NC(=O)[C@H]([C@@H](C)CC)NC(=O)[C@H](Cc2cnc[nH]2)NC(=O)CNC(=O)[C@H](CCC(=O)O)NC(=O)[C@H]([C@@H](C)CC)NC(=O)[C@@H](NC(=O)[C@H](Cc2ccc(O)cc2)NC(=O)[C@H](CO)NC(=O)[C@@H]2CCCN2)CSSC[C@@H](C(=O)N[C@@H](Cc2ccccc2)C(=O)N[C@@H](CC(N)=O)C(=O)N[C@@H](C)C(=O)O)NC(=O)[C@H](Cc2ccc(O)cc2)NC1=O (H-PSYCIEGHIDGIYCFNA-OH; disulfide 4-14) , what is it?
Found: not satisfied

Lookup: Same thing, different compound: CC(C)C[C@H](NC(=O)CNC(=O)CNC(=O)[C@@H]1Cc2ccccc2CN1C(=O)[C@H](Cc1cnc[nH]1)NC(=O)CNC(=O)[C@@H](NC(=O)[C@@H](NC(=O)[C@H](Cc1ccccc1)NC(=O)[C@H](CCCNC(=N)N)NC(=O)[C@@H](N)CCC(N)=O)C(C)(C)S)[C@@H](C)O)C(=O)N[C@@H](Cc1ccc(O)cc1)C(=O)N1CCC[C@H]1C(=O)N[C@@H](CS)C(=O)N[C@@H](CC(N)=O)C(=O)NCC(=O)N1CCC[C@H]1C(=O)O
Found: not satisfied

Lookup: Same lookup for CC(C)C[C@@H](C(=O)N[C@@H](Cc1ccc(O)cc1)C(=O)N1CCC[C@H]1C(=O)N[C@@H](CS)C(=O)O)N(C)C(=O)CN(C)C(=O)CNC(=O)[C@H](Cc1ccccc1)NC(=O)[C@H](Cc1c[nH]nn1)NC(=O)CNC(=O)[C@@H](NC(=O)[C@@H](NC(=O)[C@H](Cc1ccccc1)NC(=O)[C@@H](N)CCCNC(=N)N)C(C)(C)S)[C@@H](C)O , please.
Found: satisfied

Lookup: CC(C)C[C@@H](C(=O)N[C@@H](Cc1ccc(O)cc1)C(=O)N1CCC[C@H]1C(=O)N[C@@H](CS)C(=O)O)N(C)C(=O)CN(C)C(=O)CNC(=O)[C@H](CCc1ccccc1)NC(=O)[C@H](Cc1cnc[nH]1)NC(=O)CNC(=O)[C@@H](NC(=O)[C@@H](NC(=O)[C@H](Cc1ccccc1)NC(=O)[C@H](CCCNC(=N)N)NC(=O)[C@@H](N)CCC(N)=O)C(C)(C)S)[C@@H](C)O , same question.
Found: not satisfied
